Every entry's value here was drawn from patent US11273168B2.

Each entry below carries its recorded pIC50.
Experimental system: Dopamine (DA) uptake (Rattus norvegicus, UniProt P23977)
Construct: The suspension was used as a crude synaptosome fraction
Sequence (P23977 whole entry): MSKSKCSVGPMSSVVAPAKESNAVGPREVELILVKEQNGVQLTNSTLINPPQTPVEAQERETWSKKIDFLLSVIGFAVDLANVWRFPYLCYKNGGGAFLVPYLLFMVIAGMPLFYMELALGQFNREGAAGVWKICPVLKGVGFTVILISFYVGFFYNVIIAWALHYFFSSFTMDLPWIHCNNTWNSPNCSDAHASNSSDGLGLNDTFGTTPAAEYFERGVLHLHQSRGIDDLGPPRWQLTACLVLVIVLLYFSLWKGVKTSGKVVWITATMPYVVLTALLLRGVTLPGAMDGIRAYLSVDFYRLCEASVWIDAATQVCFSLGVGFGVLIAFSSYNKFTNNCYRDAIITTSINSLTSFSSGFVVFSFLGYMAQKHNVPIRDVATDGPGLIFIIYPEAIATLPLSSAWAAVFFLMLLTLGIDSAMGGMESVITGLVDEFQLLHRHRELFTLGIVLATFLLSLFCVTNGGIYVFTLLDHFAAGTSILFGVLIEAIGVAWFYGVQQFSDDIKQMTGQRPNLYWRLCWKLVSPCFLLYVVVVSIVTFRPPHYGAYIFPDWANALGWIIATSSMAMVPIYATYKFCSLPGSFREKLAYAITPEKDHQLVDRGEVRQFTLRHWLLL
Experimental protocol: Dopamine (DA) uptake inhibitory activity using rat brain synaptosome (corpus striatum)
Experimental context: tritium-labeled DA 2 nM, 37° C. ten minutes, read-out: 50% Inhibitory concentration
pIC50: −log10 of the molar value. Where a name gives a salt, the structure may show the parent alone.
Parameter measured: pIC50

>>> df
                                    molecule                       experimental_system  parameter_measured  result_value
 0  CC1(C)CN(c2cc(Cl)c3occc3c2)[C@H]2CCCC[C@@H]2N1  Dopamine (DA) uptake (Rattus norvegicus, UniProt P23977)               pIC50          7.28
 1  CC1(C)CN(c2csc3ccccc23)[C@@H]2CCCC[C@@H]2N1 [Example 717]  Dopamine (DA) uptake (Rattus norvegicus, UniProt P23977)               pIC50          7.22
 2  CC1(C)CN(c2ccc3sccc3c2)[C@@H]2CCC[C@@H]2N1 (racemic)  Dopamine (DA) uptake (Rattus norvegicus, UniProt P23977)               pIC50          7.10
 3  OCCN1CCN(c2ccc(Cl)c(Cl)c2)[C@H]2CCCC[C@@H]21 (relative stereo)  Dopamine (DA) uptake (Rattus norvegicus, UniProt P23977)               pIC50          7.09
 4  CC1(C)CN(c2cc(F)cc3ccsc23)[C@@H]2CCCC[C@@H]2N1  Dopamine (DA) uptake (Rattus norvegicus, UniProt P23977)               pIC50          6.89
 5  CC1(C)CN(c2ccc3[nH]c(C#N)cc3c2)[C@H]2CCCC[C@@H]2N1  Dopamine (DA) uptake (Rattus norvegicus, UniProt P23977)               pIC50          7.16
 6  CC1(C)CN(c2cc(F)c(F)c3occc23)[C@@H]2CCCC[C@@H]2N1 [Example 580, hydrochloride]  Dopamine (DA) uptake (Rattus norvegicus, UniProt P23977)               pIC50          6.69
 7  COc1c(F)cc(N2CC(C)(C)N[C@H]3CCCC[C@@H]32)cc1F  Dopamine (DA) uptake (Rattus norvegicus, UniProt P23977)               pIC50          7.41
 8  CC1(C)CN(c2ccc(F)c3[nH]ccc23)[C@H]2CCCC[C@H]2N1  Dopamine (DA) uptake (Rattus norvegicus, UniProt P23977)               pIC50          8.37
 9  CC1(C)CN(c2ccc(OC(F)F)c(F)c2)[C@H]2CCCC[C@@H]2N1 [Example 587, dihydrochloride]  Dopamine (DA) uptake (Rattus norvegicus, UniProt P23977)               pIC50          7.12
10  Clc1ccc(N2CC3(CCC3)N[C@H]3CCCC[C@H]32)cc1  Dopamine (DA) uptake (Rattus norvegicus, UniProt P23977)               pIC50          7.96
11  CC1(C)CN(c2ccnc3[nH]ccc23)[C@H]2CCCC[C@@H]2N1 [Example 586, fumarate]  Dopamine (DA) uptake (Rattus norvegicus, UniProt P23977)               pIC50          7.03
12  CC1(C)CN(c2cccc3[nH]ncc23)[C@H]2CCCC[C@H]2N1  Dopamine (DA) uptake (Rattus norvegicus, UniProt P23977)               pIC50          8.31
13  CN1[C@H]2CCCC[C@@H]2N(c2ccc(Cl)c(Cl)c2)CC1(C)C  Dopamine (DA) uptake (Rattus norvegicus, UniProt P23977)               pIC50          8.06
14  C[C@@H]1CN(c2ccc(F)c3ccccc23)[C@H]2CCCC[C@@H]2N1  Dopamine (DA) uptake (Rattus norvegicus, UniProt P23977)               pIC50          7.08
15  CC1(C)CN(c2cccc3[nH]ccc23)[C@@H]2CCCC[C@@H]2N1  Dopamine (DA) uptake (Rattus norvegicus, UniProt P23977)               pIC50          7.02
16  C[C@@H]1CN(c2cccc3ccsc23)[C@@H]2CCCC[C@@H]2N1 (relative stereo)  Dopamine (DA) uptake (Rattus norvegicus, UniProt P23977)               pIC50          7.59
17  Cc1noc(-c2ccc(N3C[C@@H](C)N[C@H]4CCCC[C@@H]43)cc2)n1  Dopamine (DA) uptake (Rattus norvegicus, UniProt P23977)               pIC50          7.14
18  CC1(C)CN(c2csc3ccccc23)[C@@H]2CCCC[C@@H]2N1 [Example 577]  Dopamine (DA) uptake (Rattus norvegicus, UniProt P23977)               pIC50          7.32
19  CC1(C)CN(c2ccc(Cl)c(Cl)c2)[C@H]2CCCC[C@@H]2N1  Dopamine (DA) uptake (Rattus norvegicus, UniProt P23977)               pIC50          8.06
20  CC1(C)CN(c2ccc(OC(F)F)c(Cl)c2)[C@@H]2CCCC[C@H]2N1  Dopamine (DA) uptake (Rattus norvegicus, UniProt P23977)               pIC50          7.91
21  CC1(C)CN(c2ccc3occc3c2)[C@H]2CCCC[C@@H]2N1  Dopamine (DA) uptake (Rattus norvegicus, UniProt P23977)               pIC50          7.74
22  CC1(C)CN(c2csc3ccccc23)[C@H]2CCCC[C@H]2N1  Dopamine (DA) uptake (Rattus norvegicus, UniProt P23977)               pIC50          8.29
23  CC1(C)CN(c2ccc3[nH]c(C#N)cc3c2)[C@@H]2CCCC[C@@H]2N1  Dopamine (DA) uptake (Rattus norvegicus, UniProt P23977)               pIC50          8.05
24  CC1(C)CN(c2cccc3ccccc23)[C@H]2CCCC[C@H]2N1  Dopamine (DA) uptake (Rattus norvegicus, UniProt P23977)               pIC50          8.08
25  CC1(C)CN(c2cccc3ccsc23)[C@H]2CCCC[C@H]2N1  Dopamine (DA) uptake (Rattus norvegicus, UniProt P23977)               pIC50          8.41
26  CC1(C)CN(c2ccc3cc(C#N)oc3c2)[C@@H]2CCCC[C@@H]2N1  Dopamine (DA) uptake (Rattus norvegicus, UniProt P23977)               pIC50          8.01
27  CC1(C)CN(c2ccc3cc[nH]c3c2)[C@H]2CCCC[C@H]2N1  Dopamine (DA) uptake (Rattus norvegicus, UniProt P23977)               pIC50          7.07
28  CC1(C)CN(c2ccc(F)c3occc23)[C@@H]2CCCC[C@@H]2N1  Dopamine (DA) uptake (Rattus norvegicus, UniProt P23977)               pIC50          7.39
29  COc1ccc(N2CC3(CCC3)N[C@H]3CCCC[C@H]32)c2ccoc12  Dopamine (DA) uptake (Rattus norvegicus, UniProt P23977)               pIC50          7.33
30  CC1(C)CN(c2ccc3cc(O)ccc3c2)[C@H]2CCCC[C@@H]2N1  Dopamine (DA) uptake (Rattus norvegicus, UniProt P23977)               pIC50          8.15
31  CN1[C@H]2CCCC[C@@H]2N(c2ccc3sccc3c2)CC1(C)C  Dopamine (DA) uptake (Rattus norvegicus, UniProt P23977)               pIC50          7.92
32    CC1(C)CN(c2ccccc2Cl)[C@H]2CCCC[C@H]2N1  Dopamine (DA) uptake (Rattus norvegicus, UniProt P23977)               pIC50          8.17
33  C[C@@H]1CN(c2ccc(OC(F)F)c(F)c2)[C@H]2CCCC[C@@H]2N1  Dopamine (DA) uptake (Rattus norvegicus, UniProt P23977)               pIC50          6.67
34  CC1(C)CN(c2ccc3ncsc3c2)[C@H]2CCCC[C@@H]2N1 (racemic)  Dopamine (DA) uptake (Rattus norvegicus, UniProt P23977)               pIC50          7.13

---

Experimental system: Serotonin (5-HT) uptake (Rattus norvegicus)
Construct: The suspension was used as a crude synaptosome fraction; from tissue; host or cells: rat (male Wistar) frontal cortex, crude synaptosome fraction
Sequence (P31652 whole entry): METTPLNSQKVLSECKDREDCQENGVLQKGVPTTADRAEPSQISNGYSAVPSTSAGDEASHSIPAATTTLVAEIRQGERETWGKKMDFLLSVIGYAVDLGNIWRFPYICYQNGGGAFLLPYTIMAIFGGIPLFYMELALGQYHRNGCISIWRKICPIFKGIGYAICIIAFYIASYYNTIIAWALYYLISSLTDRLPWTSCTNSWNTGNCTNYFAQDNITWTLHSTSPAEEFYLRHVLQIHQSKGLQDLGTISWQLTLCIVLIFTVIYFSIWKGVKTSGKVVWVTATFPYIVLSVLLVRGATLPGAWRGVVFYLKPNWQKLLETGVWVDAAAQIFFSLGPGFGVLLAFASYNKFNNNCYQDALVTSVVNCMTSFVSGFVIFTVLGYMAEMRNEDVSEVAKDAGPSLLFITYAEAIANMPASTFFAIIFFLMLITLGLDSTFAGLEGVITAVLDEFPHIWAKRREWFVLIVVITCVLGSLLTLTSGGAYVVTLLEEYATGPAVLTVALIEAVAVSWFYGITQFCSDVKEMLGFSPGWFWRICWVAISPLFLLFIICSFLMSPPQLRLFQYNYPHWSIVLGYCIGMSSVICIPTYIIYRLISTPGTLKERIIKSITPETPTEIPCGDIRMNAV
Experimental protocol: Serotonin (5-HT) uptake inhibitory activity using rat brain synaptosome (frontal cortex)
Type: biochemical
Experimental context: tritium-labeled 5-HT 8 nM, 37° C. 10 minutes, read-out: 50% Inhibitory concentration
pIC50: −log10 of the molar value.
Where pIC50 equals or exceeds 8, the correct label is t; where it does not, the label is f.

                                   compound  answer_label
0  C[C@@H]1CN(c2ccc3sccc3c2)[C@H]2CCCC[C@@H]2N1 (relative stereo) [Example 285]             f
1  CC1(C)CN(c2cccc3occc23)[C@@H]2CCCC[C@@H]2N1 (relative stereo)             t
2  CC1(C)CN(c2ccc3sccc3c2)[C@@H]2CCC[C@@H]2N1 (racemic)             t
3  CC1(C)CN(c2ccc3[nH]c(C#N)cc3c2)[C@@H]2CCCC[C@H]2N1             t
4  CC1(C)CN(c2ccc(F)c3occc23)[C@H]2CCCC[C@@H]2N1             t
